systemName: Recombinant human HDAC8 (Homo sapiens, UniProt Q9BY41)
Construct: purchased Enzo Life Sciences BML-SE145-0100
Sequence (Q9BY41 1-377): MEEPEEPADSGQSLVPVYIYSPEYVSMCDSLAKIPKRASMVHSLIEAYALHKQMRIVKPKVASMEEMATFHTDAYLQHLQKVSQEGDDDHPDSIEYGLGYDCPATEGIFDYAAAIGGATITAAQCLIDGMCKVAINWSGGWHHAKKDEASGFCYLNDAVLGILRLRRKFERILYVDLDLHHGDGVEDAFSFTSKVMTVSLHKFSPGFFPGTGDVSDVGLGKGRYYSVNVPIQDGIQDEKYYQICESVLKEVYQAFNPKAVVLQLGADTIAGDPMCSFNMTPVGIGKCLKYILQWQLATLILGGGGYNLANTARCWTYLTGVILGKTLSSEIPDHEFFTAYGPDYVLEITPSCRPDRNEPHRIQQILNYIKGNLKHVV
measurementNotes: Human HDAC enzyme inhibitor Fluor-de-Lys assay, HDAC8
Assay type: biochemical
Note to self: IC50 under 5 µM means fulfilled, ties and anything higher get not fulfilled.

molecule | categoryLabel
CCC(=O)CCCCC[C@H](NC(=O)C1=NOC2(CCN(C(C)C)CC2)C1)c1ncc(-c2ccc3nc(C4CC4)ccc3c2)o1 | fulfilled
CCC(=O)CCCCC[C@H](NC(=O)C1CC12CCN(C)C(C)(C)C2)c1ncc(-c2ccc3nc(C)ccc3c2)[nH]1 (single isomer, unassigned) [Compound 132] | not fulfilled
CCC(=O)CCCCC[C@H](NC(=O)[C@H]1CC[C@]2(CC1)OC(=O)c1ncccc12)c1ncc(-c2cc3ccccc3nc2OC)[nH]1 | fulfilled
CCC(=O)CCCCC[C@H](NC(=O)[C@H]1CC12CCN(C)CC2)c1ncc(-c2cc3ccccc3nc2OC)o1 [Compound 125] | not fulfilled
CCC(=O)CCCCC[C@H](NC(=O)[C@H]1CC12CCN(C)CC2)c1ncc(-c2ccc3c(c2)C2CCC3C2)[nH]1 (stereo partly drawn) | fulfilled
